Emax overview
- Experimental target: human MC1R (Homo sapiens, UniProt Q01726)
- Construct: expressed in transfected cells
- Sequence (Q01726 whole entry): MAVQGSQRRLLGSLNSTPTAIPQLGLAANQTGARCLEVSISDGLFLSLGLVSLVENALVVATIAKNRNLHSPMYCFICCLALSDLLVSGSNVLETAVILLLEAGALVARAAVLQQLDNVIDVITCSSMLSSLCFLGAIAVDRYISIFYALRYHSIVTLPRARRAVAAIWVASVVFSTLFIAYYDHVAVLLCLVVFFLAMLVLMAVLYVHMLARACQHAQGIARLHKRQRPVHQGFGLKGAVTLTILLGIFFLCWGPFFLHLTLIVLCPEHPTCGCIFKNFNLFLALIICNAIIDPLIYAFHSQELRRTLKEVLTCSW
- Test method notes: cAMP assay (LANCE) in T-Rex-293 cells expressing MC1R
- Format: cell-based
- Test conditions: T-REx-293; read-out: % Effect hMC1R cAMP
Where a SMILES comes first, the peptide text is derived from it.

Compound	Emax, %
CN1C(=O)[C@H]2N[C@@H](c3ccc(cc3)C(=O)NCCCC[C@@H](C(=O)N[C@@H](Cc3ccc(O)cc3)C(N)=O)NC(=O)[C@H](CC(N)=O)NC(=O)[C@H](Cc3ccccc3)NC(=O)[C@H](Cc3ccccc3)NC(=O)[C@H](CCCNC(=N)N)NC(=O)[C@@H]1Cc1ccccc1)[C@H]1C(=O)N(c3ccccc3)C(=O)[C@H]12 [J2-major, [ II-FRFFNK ]Y]	46
C[C@@H]1NC(=O)[C@H](CC(N)=O)NC(=O)[C@H](Cc2ccccc2)NC(=O)[C@H](Cc2ccccc2)NC(=O)[C@H](CCCNC(=N)N)NC(=O)[C@H](Cc2ccccc2)N(C)C(=O)[C@@H]2N[C@H](c3ccc(cc3)C(=O)NCCCC[C@@H](C(=O)N[C@@H](Cc3ccc(O)cc3)C(N)=O)NC(=O)[C@H](Cc3ccccc3)NC1=O)[C@@H]1C(=O)N(C)C(=O)[C@@H]12 [B1-major, [ I-FRFFNAFK ]Y]	37
C[C@@H]1NC(=O)[C@H](CC(N)=O)NC(=O)[C@@H](Cc2ccccc2)NC(=O)[C@@H](Cc2ccccc2)NC(=O)[C@H](CCCNC(=N)N)NC(=O)[C@H](Cc2ccccc2)N(C)C(=O)[C@@H]2N[C@H](c3ccc(cc3)C(=O)NCCCC[C@@H](C(=O)N[C@@H](Cc3ccc(O)cc3)C(N)=O)NC(=O)[C@H](Cc3ccccc3)NC1=O)[C@@H]1C(=O)N(C)C(=O)[C@@H]12 [C1-major, [I-FRffNAFK ]Y]	47
CN1C(=O)[C@H]2N[C@@H](c3ccc(cc3)C(=O)NCCCC[C@@H](C(N)=O)NC(=O)[C@H](Cc3ccccc3)NC(=O)[C@H](Cc3ccccc3)NC(=O)[C@H](CCCNC(=N)N)NC(=O)[C@@H]1Cc1ccccc1)[C@H]1C(=O)N(c3ccccc3)C(=O)[C@H]12 [N3-major*, [II-FRFFK ]]	40
C[C@@H]1NC(=O)[C@H](CC(N)=O)NC(=O)[C@H](Cc2ccccc2)NC(=O)[C@H](Cc2ccccc2)NC(=O)[C@H](CCCNC(=N)N)NC(=O)[C@@H](NC(=O)[C@@H](N)Cc2ccc(O)cc2)CSSC[C@@H](C(=O)N[C@@H](Cc2ccc(O)cc2)C(N)=O)NC(=O)[C@H](Cc2ccccc2)NC1=O [compound 28, reference compound] (HELM PEPTIDE1{Y.C.R.F.F.N.A.F.C.Y.[am]}$PEPTIDE1,PEPTIDE1,2:R3-9:R3$$$V2.0)	44
CN1C(=O)[C@@H]2[C@H](C1=O)[C@H]1N[C@@H]2c2ccc(cc2)C(=O)NCCCC[C@@H](C(=O)N[C@@H](Cc2ccc(O)cc2)C(N)=O)NC(=O)[C@H](CC(N)=O)NC(=O)[C@H](Cc2ccccc2)NC(=O)[C@H](Cc2ccccc2)NC(=O)[C@H](CCCNC(=N)N)NC(=O)[C@H](Cc2ccccc2)N(C)C1=O [J1-major, [ I-FRFFNK ]Y]	51
CN1C(=O)[C@@H]2N[C@H](c3ccc(cc3)C(=O)NCCCC[C@@H](C(=O)NCC(N)=O)NC(=O)[C@H](CC(N)=O)NC(=O)[C@@H](Cc3ccccc3)NC(=O)[C@@H](Cc3ccccc3)NC(=O)[C@H](CCCNC(=N)N)NC(=O)[C@@H]1Cc1ccccc1)[C@@H]1C(=O)N(c3ccccc3)C(=O)[C@@H]12 [K3-major, [II-FRffNK ]G]	42
